- system name: T1, human BR3 extracellular domain (human, UniProt Q96RJ3 1-61)
- T1 construct: biotinylated where used as tracer; also called hBR3-ECD; BR3-ECD
- experimental details: SPR, BR3 ECD on chip;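 note: Anti-BR3 antibodies passed over the chip at high flow in PBS with 0.05% polysorbate 20, on and off rates fitted together globally to a 1:1 binding model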
Listing: kon of selected binders
Give your result in M⁻¹ s⁻¹ as a bare value.

Look up kon: Hu9.1-88 IgG (antibody, V domains shown, humanized IgG; also called h9.1-88) VH: EVQLVESGGGLVQPGGSLRLSCAASGFPVTGSYVSWVRQAPGKGLEWVGFIRDKANGYTTEYNPSVKGRFTISRDTSKNTLYLQMNSLRAEDTAVYYCAQVRRALDYWGQGTLVTVSS VL: DIQMTQSPSSLSASVGDRVTITCKSSQSLLYSSNQNNYLAWYQQKPGKAPKLLIYWASTRESGVPSRFSGSGSGTDFTLTISSLQPEDFATYYCQQYYTYPYTFGQGTKVEIKR
1.94e+06

Fill blank: measured kon of the binder Hu9.1-RF Fab (Fab, V domains shown) VH: EVQLVESGGGLVQPGGSLRLSCAASGFTVTAYYMSWVRQAPGKGLEWVGFIRDKANGYTTEYNPSVKGRFTISRDTSKNTFYLQMNSLRAEDTAVYYCAQVRRALDYWGQGTLVTVSS VL: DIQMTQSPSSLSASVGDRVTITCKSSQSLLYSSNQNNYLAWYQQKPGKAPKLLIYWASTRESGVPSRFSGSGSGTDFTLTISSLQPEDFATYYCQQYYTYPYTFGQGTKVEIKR is ____.
2.02e+06

Look up kon for this binder: Hu2.1-40 Fab (Fab, V domains shown, Fab) VH: EVQLVESGGGLVQPGGSLRLSCAASGDSITRGYWNWVRQAPGKGLEWVGYINYSGTTYYNPSLKSRFTISRDTSKNTFYLQMNSLRAEDTAVYYCATTLPYGAMDYWGQGTLVTVSS VL: DIQMTQSPSSLSASVGDRVTITCRASESVDDYGISFMHWYQQKPGKAPKLLIYRASDLESGVPSRFSGSGSGTDFTLTISSLQPEDFATYYCQQTSKDPWTFGQGTKVEIKR
110000

Look at this binder and give its reported kon. murine monoclonal antibody 2.1 (antibody, V domains shown, mouse hybridoma IgG; also called 2.1 IgG; mu2.1) VH: EVQLQESGPSLVKPSQTLSLTCSVTGDSITRGYWNWIRKFPGNKLEFMGYINYSGTTYYNPSLKSRISITRDTSKNQYYLQLNSVTTEDTATYYCATPHTYGAMDYWGQGTTLTVSA VL: DIVLTQSPVSLAVSLGQRATISCRASESVDDYGISFMHWYQQKPGQPPKLLIYRASDLESGIPARFSGSGSGTDFTLTINPVETDDVAIYYCQQTSKDPWTFGGGT
960000

Recorded kon for Hu2.1-40L Fab (Fab, V domains shown, Fab) VH: EVQLVESGGGLVQPGGSLRLSCAASGDSITRGYWNWVRQAPGKGLEWVGYINYSGTTYYNPSLKSRFTISRDTSKNTLYLQMNSLRAEDTAVYYCATTLPYGAMDYWGQGTLVTVSS VL: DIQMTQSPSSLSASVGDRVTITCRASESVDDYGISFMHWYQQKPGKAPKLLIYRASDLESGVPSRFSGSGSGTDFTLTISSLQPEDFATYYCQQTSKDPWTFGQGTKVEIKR , please?
40000
